The reported numbers originate from patent US20260242320A1.

Provide the reported IC50 of each item.
- System: LPS-induced proinflammatory factor nitric oxide (NO) in immunocompetent BV-2 cells
- TEST DETAILS: NO assay: inhibition of LPS-induced NO overproduction in BV-2 cells
- Assay type: cell-based
- EXPERIMENTAL SETUP: Mus musculus, BV-2, 24 h, read-out: Antineuroinflammatory activity (IC50 inhibiting LPS-induced NO)
Numbers only, in µM.

Below are worked cases with known answers.
C=C(C)[C@@H]1CCC(C)=C[C@H]1c1c(O)cc(CCCCC)cc1OCC :: 167
C=C(C)[C@@H]1CCC(C)=C[C@H]1c1c(O)cc(CCCCCCC)cc1O [Compound 12f] :: 42

Return reported IC50; argument: C#CCOc1cc(CCCCC)cc(O)c1[C@@H]1C=C(C)CC[C@H]1C(=C)C
99.6
